System Name: PARP1 (Homo sapiens (Human))
Parameter: pIC50
Scale: pIC50 equals -log10([C]), with [C] in mol/L.

Look up pIC50 for this compound: CCc1cc2ncc(CN3C[C@H](Oc4ccc(C(=O)NC)nc4)C[C@H]3C)cc2[nH]c1=O [Example 31] 7.43

And the next one, CCc1cc2ncc(CN3C[C@H](Oc4cnc(C(=O)NC5CC5)c(F)c4)[C@H]3C)cc2[nH]c1=O [Example 66] ? 8.48

###

System Name: PARP1 (Homo sapiens (Human), UniProt P09874)
Sequence (P09874 whole entry): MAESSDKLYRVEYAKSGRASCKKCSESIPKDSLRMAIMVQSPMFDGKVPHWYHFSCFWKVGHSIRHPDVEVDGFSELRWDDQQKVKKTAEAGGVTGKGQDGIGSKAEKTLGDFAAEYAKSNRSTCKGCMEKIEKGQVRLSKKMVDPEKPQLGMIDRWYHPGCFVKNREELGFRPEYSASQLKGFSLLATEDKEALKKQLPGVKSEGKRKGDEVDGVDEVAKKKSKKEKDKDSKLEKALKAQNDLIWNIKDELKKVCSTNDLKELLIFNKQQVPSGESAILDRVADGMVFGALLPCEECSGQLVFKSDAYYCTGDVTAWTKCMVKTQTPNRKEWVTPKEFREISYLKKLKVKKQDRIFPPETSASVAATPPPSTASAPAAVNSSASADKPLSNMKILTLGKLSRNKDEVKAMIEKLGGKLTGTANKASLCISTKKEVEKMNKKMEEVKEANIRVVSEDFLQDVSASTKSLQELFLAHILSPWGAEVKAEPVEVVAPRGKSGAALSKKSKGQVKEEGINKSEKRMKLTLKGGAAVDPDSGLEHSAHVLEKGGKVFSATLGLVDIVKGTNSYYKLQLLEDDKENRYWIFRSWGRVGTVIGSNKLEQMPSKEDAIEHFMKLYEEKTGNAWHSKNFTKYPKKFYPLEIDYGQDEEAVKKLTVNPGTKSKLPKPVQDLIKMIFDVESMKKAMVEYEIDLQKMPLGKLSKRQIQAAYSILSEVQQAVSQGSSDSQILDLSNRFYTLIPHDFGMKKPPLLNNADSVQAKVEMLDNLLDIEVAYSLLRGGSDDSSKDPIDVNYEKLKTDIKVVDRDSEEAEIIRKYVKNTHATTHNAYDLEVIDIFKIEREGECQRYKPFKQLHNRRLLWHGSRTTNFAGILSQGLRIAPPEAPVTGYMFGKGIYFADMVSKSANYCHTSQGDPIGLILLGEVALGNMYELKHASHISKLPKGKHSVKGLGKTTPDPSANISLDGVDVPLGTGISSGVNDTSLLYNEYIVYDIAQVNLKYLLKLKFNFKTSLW
Parameter: IC50 (nM)
Reply numerically in nM, unit not repeated.

Look up IC50 for this molecule: CCc1cc2ncc(CN3C[C@H](n4ccc5nc(C(=O)NC)ccc54)[C@H]3C)cc2[nH]c1=O 6.6

And the next one, CNC(=O)c1ccc(O[C@H]2CN(Cc3ccc4nc(C)c(=O)[nH]c4c3F)[C@@H]2C)cn1 ? 11

And the next one, [2H]C([2H])([2H])NC(=O)c1ccc(O[C@H]2CN(C([2H])([2H])c3cnc4cc(CC)c(=O)[nH]c4c3)[C@@H]2C)cn1 ? 5

And the next one, [2H]C([2H])([2H])NC(=O)c1ccc(O[C@H]2CN(Cc3cnc4cc(CC)c(=O)[nH]c4c3)[C@@H]2C)cn1 ? 4.3

And the next one, CNC(=O)c1ncc(O[C@@H]2CCN(Cc3cnc4cc(C5CC5)c(=O)[nH]c4c3)C2)cc1F ? 11

And the next one, Cc1cc2ncc(CN3C[C@H](Oc4ccc(C(=O)NC5CC(F)(F)C5)nc4)[C@H]3C)cc2[nH]c1=O ? 3.8

And the next one, CCc1cc2ncc(CN3CC(n4ccc5nc(C(=O)NC)ccc54)C3)cc2[nH]c1=O ? 5.5

And the next one, CCc1cc2ncc(CN3C[C@H](Oc4ccc(C(=O)NC)nc4)[C@H]3C)cc2[nH]c1=O ? 7.3

And the next one, CNC(=O)c1ncc(O[C@H]2CN(Cc3cnc4cc(C)c(=O)[nH]c4c3)[C@@H]2C)cc1F ? 6.3

And the next one, C[C@@H]1[C@@H](Oc2ccc(C(=O)NC3CC3)nc2)CN1Cc1cnc2cc(Cl)c(=O)[nH]c2c1 ? 2.8

And the next one, C[C@@H]1[C@@H](Oc2ccc(C(=O)NC3CC3)nc2)CN1Cc1cnc2c(c1)[nH]c(=O)c1ccoc12 ? 8.8

And the next one, Cc1cc2ncc(CN3C[C@H](Oc4ccc(F)nc4)[C@H]3C)cc2[nH]c1=O ? 18

And the next one, CNC(=O)c1ccc(O[C@H]2CN(Cc3cnc4cc(C)c(=O)[nH]c4c3)[C@@H]2C)cn1 ? 11

And the next one, CNC(=O)c1ccc(O[C@@H]2CCN(Cc3cnc4cc(C5CC5)c(=O)[nH]c4c3)C2)cn1 ? 6.4

And the next one, CNC(=O)c1ccc(O[C@H]2CN(Cc3cnc4cc(Cl)c(=O)[nH]c4c3)[C@@H]2C)cn1 ? 3.8

And the next one, CNC(=O)c1ccc(O[C@H]2CN(Cc3cnc4cc(C(F)F)c(=O)[nH]c4c3)[C@@H]2C)cn1 ? 4.1

And the next one, CCc1cc2ncc(CN3C[C@H](Oc4ccc(C(=O)NC)nc4)[C@@H]3C)cc2[nH]c1=O ? 5.6

And the next one, CCc1cn2nc(CN3C[C@H](Oc4ccc(C(=O)NC)nc4)[C@H]3C)cc2[nH]c1=O ? 9.9

And the next one, CCc1cc2ncc(CN3C[C@H](Oc4ccc(C#N)nc4)[C@H]3C)cc2[nH]c1=O ? 5

And the next one, Cc1cc2ncc([C@H](C)N3C[C@H](Oc4ccc(C#N)nc4)[C@H]3C)cc2[nH]c1=O (single isomer, unassigned) ? 18

And the next one, CCc1cc2ncc(CN3CC(Oc4ccc(C(=O)NC5CC5)nc4)C3)cc2[nH]c1=O ? 6.6

And the next one, CCc1cc2ncc(CN3C[C@H](Oc4ccc(F)cc4)[C@H]3C)cc2[nH]c1=O ? 4.1

And the next one, CCc1cc2ncc(CN3CC[C@@](C)(Oc4ccc(C(=O)NC)nc4)C3)cc2[nH]c1=O ? 6.6

And the next one, Cc1cc2ncc(CN3C[C@H](Oc4ccc(C#N)cc4)[C@H]3C)cc2[nH]c1=O ? 5.8

And the next one, CCNC(=O)c1ccc(OC2CN(Cc3cnc4cc(CC)c(=O)[nH]c4c3)C2)cn1 ? 6

And the next one, CCc1nc2cc(F)c(CN3CC[C@@H](Oc4ccc(C(=O)NC)nc4)C3)cc2[nH]c1=O ? 6.8

And the next one, Cc1cc2ncc(CN3C[C@H](Oc4ccc(C#N)nc4)[C@H]3C)cc2[nH]c1=O ? 4.5

And the next one, CCc1cc2ncc(CN3C[C@H](Oc4ccc(C(=O)NC5CC5)nc4)[C@H]3C)cc2[nH]c1=O ? 6.6

And the next one, CCc1cc2ncc(CN3CC[C@@H](n4ccc5nc(C(=O)NC)ccc54)C3)cc2[nH]c1=O ? 6.3

And the next one, CCc1cc2ncc(CN3CC[C@@H](Oc4ccc(C(=O)NC)nc4C#N)C3)cc2[nH]c1=O ? 3.9

###

What log10(IC50) was measured for each of the following?
System Name: PARP2 (Homo sapiens (Human))
Protocol Summary: Biochemical fluorescent polarization (FP) assay, displacement of PARPi-FL
Type: binding
Condition Details: 20 nM protein, 3 nM PARPi-FL, 4 h at room temperature; read-out: IC50 FP PARP2
Note: values are log10 of IC50 expressed in µM.

Look up log10(IC50) for this molecule: CCc1cc2ncc(CN3C[C@H](Oc4ccc(C(=O)NC)nc4)[C@@H]3C)cc2[nH]c1=O [Example 20] 1.28

And the next one, CNC(=O)c1ncc(O[C@@H]2CCN(Cc3cnc4cc(C5CC5)c(=O)[nH]c4c3)C2)cc1F [Example 25] ? 1.40

And the next one, CCc1cc2ncc(CN3CC[C@@H](Oc4ccc(C#N)cn4)C3)cc2[nH]c1=O [Example 29] ? 1.86

And the next one, CCc1cc2ncc(CN3C[C@H](Oc4ccc(C(=O)NC)nc4)[C@H]3C)cc2[nH]c1=O [Example 17] ? 1.32

And the next one, CCc1cc2ncc([C@@H](C)N3C[C@H](Oc4ccc(C(=O)NC)nc4)[C@H]3C)cc2[nH]c1=O (single isomer, unassigned) [Example 54] ? -0.05

And the next one, Cc1cc2ncc(CN3C[C@H](Oc4ccc(C(=O)NC5CC5)nc4)[C@H]3C)cc2[nH]c1=O [Example 53] ? 1.79

###

System Name: PARP2 (Homo sapiens (Human), UniProt Q9UGN5)
Sequence (Q9UGN5 whole entry): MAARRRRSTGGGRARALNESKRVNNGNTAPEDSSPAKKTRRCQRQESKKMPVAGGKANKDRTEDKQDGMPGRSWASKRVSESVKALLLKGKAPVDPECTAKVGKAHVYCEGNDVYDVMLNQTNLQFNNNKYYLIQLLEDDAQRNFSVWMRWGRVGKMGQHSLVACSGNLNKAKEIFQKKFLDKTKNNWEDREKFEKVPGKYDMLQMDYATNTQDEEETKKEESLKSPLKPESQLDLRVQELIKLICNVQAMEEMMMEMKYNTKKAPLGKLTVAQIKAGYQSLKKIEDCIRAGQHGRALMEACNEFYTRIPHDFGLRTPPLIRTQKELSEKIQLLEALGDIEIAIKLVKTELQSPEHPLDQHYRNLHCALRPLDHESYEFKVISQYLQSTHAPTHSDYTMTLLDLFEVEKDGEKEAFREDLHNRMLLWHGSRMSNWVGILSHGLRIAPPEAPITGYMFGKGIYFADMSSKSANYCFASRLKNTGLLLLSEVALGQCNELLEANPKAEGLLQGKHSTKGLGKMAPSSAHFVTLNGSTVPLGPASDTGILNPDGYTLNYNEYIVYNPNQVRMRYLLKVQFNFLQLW
Protocol Summary: Biochemical fluorescent polarization (FP) assay, displacement of PARPi-FL
Assay type: binding
Condition Details: 20 nM protein, 3 nM PARPi-FL, 4 h at room temperature; read-out: IC50 FP PARP2
Doc: threshold 8 µM (exclusive). Items with IC50 beneath it return true; others return false.

Decide: IC50 of CNC(=O)c1ccc(O[C@H]2CN(Cc3cnc4cc(C(F)F)c(=O)[nH]c4c3)[C@@H]2C)cn1 strictly below 8 µM? true

And the next one, Cc1cc2ncc(CN3CC[C@@H](Oc4cnc(C(=O)NC5CC5)c(F)c4)C3)cc2[nH]c1=O ? false

And the next one, Cc1cc2ncc([C@H](C)N3C[C@H](Oc4ccc(C#N)nc4)[C@H]3C)cc2[nH]c1=O (single isomer, unassigned) ? false

And the next one, CCc1cc2ncc(CN3C[C@H](Oc4cnc(C(=O)NC)c(F)c4)[C@H]3C)cc2[nH]c1=O ? false

And the next one, CCc1cc2ncc(CN3CC(Oc4ccc(C(=O)NC5CC5)nc4)C3)cc2[nH]c1=O ? false

And the next one, C[C@@H]1[C@@H](Oc2ccc(C(=O)NC3CC3)nc2)CN1Cc1cnc2cc(C3CC3)c(=O)[nH]c2c1 ? true

And the next one, CCNC(=O)c1ccc(OC2CN(Cc3cnc4cc(CC)c(=O)[nH]c4c3)C2)cn1 ? false

And the next one, C[C@@H]1[C@@H](Oc2ccc(C(=O)NC3CC3)nc2)CN1Cc1cnc2cc(C(F)F)c(=O)[nH]c2c1 ? true

And the next one, CCc1cc2ncc(CN3C[C@H](Oc4ccc(C#N)cn4)[C@H]3C)cc2[nH]c1=O ? false

And the next one, CCc1cc2ncc(CN3C[C@H](Oc4ccc(C(=O)NC)nc4)C[C@H]3C)cc2[nH]c1=O ? false

And the next one, CCc1cc2ncc(CN3C[C@H](Oc4cnc(C(=O)NC5CC5)c(F)c4)[C@H]3C)cc2[nH]c1=O ? true

And the next one, CCc1cc2ncc(CN3C[C@H](n4ccc5nc(C(=O)NC)ccc54)[C@H]3C)cc2[nH]c1=O ? false

And the next one, Cc1cc2ncc(CN3CCC(Oc4ccc(C(=O)NCC(F)F)nc4)C3)cc2[nH]c1=O (stereo in doubt) ? false

And the next one, CCc1nc2cc(F)c(CN3CC(Oc4ccc(C(=O)NC)nc4)C3)cc2[nH]c1=O ? false

And the next one, CCc1cc2ncc(CN3C[C@H](Oc4ccc(C#N)nc4)[C@H]3C)cc2[nH]c1=O ? false
